meta.source: PubChem BioAssay

In this section, each of the compounds is paired with its reported z-score.
# Assay Method Text: DUSP6 inhibitors restoring Erk phosphorylation by chemical complementation, primary imaging in DUSP6-transfected HeLa (AID 609)
# Assay Conditions: HeLa MKP-3 transfected, phospho-Erk imaging KS statistic; measured here: nuclear c-Myc green intensity z-score; at 10 µM; cells stimulated with TPA for 15 min
// return a plain number; no unit text

N#Cc1c(N)nc(SCC(=O)NCCc2ccccc2)c(C#N)c1-c1cccs1 : -0.516
C=CCNc1nc(-c2cccc(OC)c2O)nc2ccccc12 : 0.355
O=C1CCC(=O)N1CNc1ccccn1 : -0.186
CC1(C)Cc2c(C#N)c(NCc3ccco3)nc(-c3ccco3)c2CO1 : -1.81
COc1ccc(-c2cc3nc4n(c(=O)c3s2)CCOC4)cc1 : -0.643

Kindly review the next compound as well.
The reported value for `N#Cc1c(SCC(N)=O)nsc1SCc1ccc(Cl)cc1` in terms of z-score is -1.2
